Hello, the source for this data is ChEMBL document CHEMBL3779826, in case you need it.

target: Cholinesterase (Equus caballus); test: Inhibition of equine serum BChE using butyrylthiocholine iodide as substrate preincubated for 20mins before the addition of substrate by Ellman's method; details: read-out: Ki
Sequence (P81908 whole entry): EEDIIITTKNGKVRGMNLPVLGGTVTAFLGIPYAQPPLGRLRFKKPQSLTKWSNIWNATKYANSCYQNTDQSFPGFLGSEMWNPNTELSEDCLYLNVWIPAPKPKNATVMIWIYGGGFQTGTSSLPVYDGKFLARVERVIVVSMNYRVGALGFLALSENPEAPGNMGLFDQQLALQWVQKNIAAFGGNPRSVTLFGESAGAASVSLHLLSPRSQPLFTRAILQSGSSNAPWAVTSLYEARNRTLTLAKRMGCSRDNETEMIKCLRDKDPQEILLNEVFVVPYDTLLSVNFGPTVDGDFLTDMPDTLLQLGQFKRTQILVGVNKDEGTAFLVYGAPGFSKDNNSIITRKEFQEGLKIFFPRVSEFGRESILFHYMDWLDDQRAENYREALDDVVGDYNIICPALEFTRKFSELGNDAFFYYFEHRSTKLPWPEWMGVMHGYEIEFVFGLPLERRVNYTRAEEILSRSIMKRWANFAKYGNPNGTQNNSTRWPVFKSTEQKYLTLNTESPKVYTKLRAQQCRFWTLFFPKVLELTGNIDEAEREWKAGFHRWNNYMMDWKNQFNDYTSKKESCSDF
pKi: −log10 of the molar value.
quantity kind: pKi

Guide cases for pKi, answers given:
C=CCNC(=O)[C@]12CCC(C)(C)C[C@H]1C1=CC[C@@H]3[C@@]4(C)C[C@@H](O)[C@H](O)C(C)(C)[C@@H]4CC[C@@]3(C)[C@]1(C)CC2 = < 4.70
COC(=O)[C@]12CCC(C)(C)C[C@H]1C1=CC[C@@H]3[C@@]4(C)C[C@@H](OS(N)(=O)=O)[C@H](O)C(C)(C)[C@@H]4CC[C@@]3(C)[C@]1(C)CC2 = < 4.40
CC(=O)O[C@@H]1C[C@]2(C)[C@H]3CC=C4[C@@H]5CC(C)(C)CC[C@]5(C(=O)O)CC[C@@]4(C)[C@]3(C)CC[C@H]2C(C)(C)[C@H]1OC(C)=O = < 5.00

Batch: pKi for all items listed.
1. CC1(C)CC[C@]2(C(=O)OCc3cccc(Cl)c3)CC[C@]3(C)C(=CC[C@@H]4[C@@]5(C)C[C@@H](O)[C@H](O)C(C)(C)[C@@H]5CC[C@]43C)[C@@H]2C1
2. CC1(C)CC[C@@]2(C(=O)OCc3ccc([N+](=O)[O-])cc3)CC[C@@]3(C)C(=CC[C@H]4[C@]5(C)C[C@H](O)[C@@H](O)C(C)(C)[C@H]5CC[C@@]43C)[C@H]2C1 (single isomer, unassigned)

Result:
< 5.00
< 5.40
